# System Tested: T1, B7H3 on B7H3-positive human tumour cells (A498, MCF-7, Caki-2, 786-0) (human, UniProt Q5ZPR3 29-534)
# T1 sequence (looked up): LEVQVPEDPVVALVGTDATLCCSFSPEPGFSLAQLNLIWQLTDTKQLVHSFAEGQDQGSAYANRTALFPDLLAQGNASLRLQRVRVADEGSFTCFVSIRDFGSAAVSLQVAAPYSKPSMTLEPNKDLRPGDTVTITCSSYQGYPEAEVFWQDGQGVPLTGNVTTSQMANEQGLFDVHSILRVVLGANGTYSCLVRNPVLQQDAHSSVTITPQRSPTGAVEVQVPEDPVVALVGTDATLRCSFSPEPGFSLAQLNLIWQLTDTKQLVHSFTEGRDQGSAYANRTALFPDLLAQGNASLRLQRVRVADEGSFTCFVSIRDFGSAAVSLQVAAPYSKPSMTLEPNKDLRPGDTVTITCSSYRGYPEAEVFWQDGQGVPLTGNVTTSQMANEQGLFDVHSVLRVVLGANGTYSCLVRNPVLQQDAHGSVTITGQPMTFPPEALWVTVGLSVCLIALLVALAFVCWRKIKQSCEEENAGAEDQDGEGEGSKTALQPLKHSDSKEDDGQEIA
# Assay Overview: cell-based or functional assay
Metric Name: IC50 [M] CTG, Caki-2 cells (B7H3-positive) (M)

Example 281L2: anti-B7H3 AK1B (TPP-5706) coupled with Intermediate F281 (antibody, human IgG1, kappa, V domains shown, KSP inhibitor-linker (Intermediate F281) on cysteine residues of the partially reduced antibody, sites not given; drug/mAb ratio 2.4) VH: QVQLQQPGAELVKPGASVKMSCKASGYTFTIYNVHWIKQTPGQGLEWMGTIFPGNGDTSYNQKFKDKATLTTDKSSKTAYMQLNSLTSEDSAVYYCARWDDGNVGFAHWGQGTLVTVSA VL: DIQMTQSPASLSASVGETVTITCRASENINNYLTWFQQKQGKSPQLLVYHAKTLAEGVPSRFSGSGSGTQFSLKINSLQPEDFGSYYCQHHYGTPPTFGGGTKLEIKR | 5.26e-09
Example 208L2: anti-B7H3 AK1B (TPP-5706) coupled with Intermediate F104 (stirred at pH 8 overnight) (antibody, human IgG1, kappa, V domains shown, KSP inhibitor-linker (Intermediate F104) on cysteine residues of the partially reduced antibody, sites not given; drug/mAb ratio 2.9) VH: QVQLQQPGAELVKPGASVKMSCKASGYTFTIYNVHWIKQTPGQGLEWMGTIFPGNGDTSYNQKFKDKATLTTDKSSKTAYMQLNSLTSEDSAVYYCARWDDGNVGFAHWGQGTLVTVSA VL: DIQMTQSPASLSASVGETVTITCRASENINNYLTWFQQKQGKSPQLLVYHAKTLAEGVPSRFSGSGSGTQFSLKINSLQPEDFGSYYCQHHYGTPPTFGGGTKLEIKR | 5.99e-09
